- Tested on: NCI-H2009
- PROCEDURE_SUMMARY: relative viability (nuclei count vs DMSO), 5 days (fraction); higher = more cells survive
- MEASUREMENT_CONDITIONS: first compound 0.05 µM
PARAMETER: relative viability
// response body must contain only the number

Example entries begin here.
Query: Please indicate recorded relative viability of CC1(C)CCC(c2ccc(Cl)cc2)=C(CN2CCN(c3ccc(C(=O)NS(=O)(=O)c4ccc(N[C@H](CCN5CCOCC5)CSc5ccccc5)c(S(=O)(=O)C(F)(F)F)c4)cc3)CC2)C1 [Navitoclax] + O=C(CCCCCCC(=O)Nc1ccccc1)NO [Vorinostat] (partner 1 µM) measured with NCI-H2009.
Reply: 0.759

Query: Please indicate recorded relative viability of CC1(C)CCC(c2ccc(Cl)cc2)=C(CN2CCN(c3ccc(C(=O)NS(=O)(=O)c4ccc(N[C@H](CCN5CCOCC5)CSc5ccccc5)c(S(=O)(=O)C(F)(F)F)c4)cc3)CC2)C1 [Navitoclax] + Cc1nc(Nc2ncc(C(=O)Nc3c(C)cccc3Cl)s2)cc(N2CCN(CCO)CC2)n1 [Dasatinib] (partner 0.075 µM) measured with NCI-H2009.
Reply: 0.264

Further cases:
Query: Please indicate recorded relative viability of CC1(C)CCC(c2ccc(Cl)cc2)=C(CN2CCN(c3ccc(C(=O)NS(=O)(=O)c4ccc(N[C@H](CCN5CCOCC5)CSc5ccccc5)c(S(=O)(=O)C(F)(F)F)c4)cc3)CC2)C1 [Navitoclax] + C[C@]1(O)C[C@@H](c2nc(-c3ccc4ccc(-c5ccccc5)nc4c3)c3c(N)nccn32)C1 [Linsitinib] (partner 1 µM) measured with NCI-H2009.
Reply: 1.16
